Tested on: human lung cancer strain NCI-H441
Type: cell-based
pIC50: −log10 of the molar value. Where a SMILES comes first, the peptide text is derived from it. Bridges are numbered along the chain shown (N, C = ends). [ ]: non-standard residue; d: D form. The star is where a group is joined. hPhe(3-Cl-4-CF3) = N[C@@H](CCc1ccc(C(F)(F)F)c(Cl)c1)C(=O)O; NPrPhe(4-CF3) = CCCN[C@@H](Cc1ccc(C(F)(F)F)cc1)C(=O)O; NMeGly(cPent) = CN[C@H](C(=O)O)C1CCCC1; Gly(cPent) = N[C@H](C(=O)O)C1CCCC1; NMeD = CN[C@@H](CC(=O)O)C(=O)O; NMeL = CN[C@@H](CC(C)C)C(=O)O; Morpholide = C1CN(*)CCO1; NMeA = CN[C@@H](C)C(=O)O; Ac5c = NC1(C(=O)O)CCCC1; Aze = O=C(O)[C@@H]1CCN1; Sar = CNCC(=O)O
measuredParameter: pIC50

compound	experimentalSystem	measured
CCCN1C(=O)[C@@H]2CCN2C(=O)[C@H](C)N(C)C(=O)[C@H](C2CCCC2)NC(=O)[C@H](CC(C)C)N(C)C(=O)C[C@@H](C(=O)N2CCOCC2)N(C)C(=O)[C@H](C2CCCC2)N(C)C(=O)C2(CCCC2)NC(=O)[C@@H]2CCCN2C(=O)[C@H](CCc2ccc(C(F)(F)F)c(Cl)c2)NC(=O)CN(C)C(=O)[C@@H]1Cc1ccc(C(F)(F)F)cc1 [PP0272] ([NMeL][Gly(cPent)][NMeA][Aze][NPrPhe(4-CF3)][Sar][hPhe(3-Cl-4-CF3)]P[Ac5c][NMeGly(cPent)][NMeD]-Morpholide; lactam N-11)	human lung cancer strain NCI-H441	8.43

---

System: human lung cancer strain NCI-H441
Format: cell-based
Where a SMILES comes first, the peptide text is derived from it. Bridges are numbered along the chain shown (N, C = ends). [ ]: non-standard residue; d: D form. The star is where a group is joined. hPhe(3-Cl-4-CF3) = N[C@@H](CCc1ccc(C(F)(F)F)c(Cl)c1)C(=O)O; NPrPhe(4-CF3) = CCCN[C@@H](Cc1ccc(C(F)(F)F)cc1)C(=O)O; NMeGly(cPent) = CN[C@H](C(=O)O)C1CCCC1; Pro(4,4-Me2) = CC1(C)CN[C@H](C(=O)O)C1; NMeD = CN[C@@H](CC(=O)O)C(=O)O; NMeL = CN[C@@H](CC(C)C)C(=O)O; Morpholide = C1CN(*)CCO1; Ac5c = NC1(C(=O)O)CCCC1; Sar = CNCC(=O)O
IC50: recorded values
measuredParameter: IC50 (nM)

compound	measuredParameter	measured
CCO[C@@H]1C[C@H]2C(=O)NC3(CC(C)(C)C3)C(=O)N(C)[C@@H](C3CCCC3)C(=O)N(C)[C@H](C(=O)N(C)CC)CC(=O)N(C)[C@@H](CC(C)C)C(=O)N[C@@H]([C@@H](C)CC)C(=O)N(C)CC(=O)N(C)[C@H]3C/C=C\CCN(C3=O)[C@@H](Cc3ccc(C(F)F)cc3)C(=O)N(C)CC(=O)N[C@@H](CCc3cc(C)c(C4CC4)c(C)c3)C(=O)N2C1	IC50	75.9
CCCN1C(=O)CN(C)C(=O)CN(C)C(=O)[C@H]([C@@H](C)CC)NC(=O)[C@H](CC(C)C)N(C)C(=O)C[C@@H](C(=O)N2CCOCC2)N(C)C(=O)[C@H](C2CCCC2)N(C)C(=O)C2(CCCC2)NC(=O)[C@@H]2CC(C)(C)CN2C(=O)[C@H](CCc2ccc(C(F)(F)F)c(Cl)c2)NC(=O)CN(C)C(=O)[C@@H]1Cc1ccc(C(F)(F)F)cc1 [PP0446] ([NMeL]I[Sar][Sar][NPrPhe(4-CF3)][Sar][hPhe(3-Cl-4-CF3)][Pro(4,4-Me2)][Ac5c][NMeGly(cPent)][NMeD]-Morpholide; lactam N-11)	IC50	1.6
CC[C@H](C)[C@@H]1NC(=O)[C@H](CC)N(C)C(=O)C[C@@H](C(=O)N2CCOCC2)N(C)C(=O)[C@H](C2CCCC2)N(C)C(=O)C2(CCCC2)NC(=O)[C@@H]2CCCN2C(=O)[C@H](CCc2cc(F)c(C(F)(F)F)c(F)c2)NC(=O)CN(C)C(=O)[C@H](Cc2ccc(C(F)(F)F)cc2)N2CCCCC[C@@H](C2=O)N(C)C(=O)CN(C)C1=O	IC50	54.3
CCO[C@@H]1C[C@H]2C(=O)NC3(CCC3)C(=O)N(C)[C@@H](C3CCCC3)C(=O)N(C)[C@H](C(=O)N(C)C)CC(=O)N(C)[C@@H](CC(C)C)C(=O)N[C@@H]([C@@H](C)CC)C(=O)N3CC[C@H]3C(=O)N(C)[C@H]3CC(C)=CCN(C3=O)[C@@H](Cc3ccc(C(F)(F)F)cc3)C(=O)N(C)CC(=O)N[C@@H](CCc3cc(F)c(C(F)(F)F)c(F)c3)C(=O)N2C1	IC50	67.2
CC[C@H](C)[C@@H]1NC(=O)[C@@H]2CCCCCCc3ccc(cc3)C[C@@H](C(=O)N(C)CC(=O)N[C@@H](CCc3ccc(C(F)(F)F)c(OC)c3)C(=O)N3C[C@H](OC(C)C)C[C@H]3C(=O)NC3(CC(C)(C)C3)C(=O)N(C)[C@@H](C3CCCC3)C(=O)N(C)[C@H](C(=O)N(C)C)CC(=O)N2C)N2CC/C=C\C[C@@H](C2=O)N(C)C(=O)CN(C)C1=O	IC50	1.1

---

experimentalSystem: GDP-bound KRAS wild-type protein (Homo sapiens)
experimentDescription: Binding to KRAS by surface plasmon resonance (SPR), dissociation constant KD
statedConditions: 1:1 binding model
pKd: −log10 of the molar value.
Each entry below carries its reported pKd.
measuredParameter: pKd

inputSmiles	measured
CCO[C@@H]1C[C@H]2C(=O)NC3(CC(C)(C)C3)C(=O)N(C)[C@@H](C(CC)CC)C(=O)N(C)[C@H](C(=O)N(C)C)CC(=O)N(C)[C@@H](C(C)C)C(=O)N[C@@H]([C@@H](C)CC)C(=O)N(C)CC(=O)N(C)[C@H]3C/C=C\CCN(C3=O)[C@@H](CC3CCC(F)(F)CC3)C(=O)N(C)CC(=O)N[C@@H](CCc3ccc(C(F)(F)F)c(OC)c3)C(=O)N2C1	8.74
CCOC[C@H]1C(=O)N[C@@H]([C@@H](C)CC)C(=O)N(C)CC(=O)N(C)[C@H]2C/C=C\CCN(C2=O)[C@@H](Cc2ccc(C)cc2)C(=O)N(C)CC(=O)N[C@@H](CCc2cc(F)c(C(F)(F)F)c(F)c2)C(=O)N2C[C@@H](C)C[C@H]2C(=O)NC2(CC(C)(C)C2)C(=O)N(C)[C@@H](C2CCCC2)C(=O)N(C)[C@H](C(=O)N(CC)CC)CC(=O)N1C	9.30
CCC[C@H]1C(=O)N[C@@H]([C@@H](C)CC)C(=O)N(C2CC2)CC(=O)N(C)[C@H]2C/C=C\CCN(C2=O)[C@@H](Cc2ccc(C)cc2)C(=O)N(C)CC(=O)N[C@@H](CCc2ccc(C(F)(F)F)c(OC)c2)C(=O)N2C[C@H](OCC)C[C@H]2C(=O)NC2(CC(C)(C)C2)C(=O)N(C)[C@@H](CC(C)(C)C)C(=O)N(C)[C@H](C(=O)N(C)C)CC(=O)N1C	9.40

---

experimentalSystem: GDP-bound KRAS wild-type protein (Homo sapiens, UniProt P01116)
Sequence (P01116 1-188 isoform P01116-2): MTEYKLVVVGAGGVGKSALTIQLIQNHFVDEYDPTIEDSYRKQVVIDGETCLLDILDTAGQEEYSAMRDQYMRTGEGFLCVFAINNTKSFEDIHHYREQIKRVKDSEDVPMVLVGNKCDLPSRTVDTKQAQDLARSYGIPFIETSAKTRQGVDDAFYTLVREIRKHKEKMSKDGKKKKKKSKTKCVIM
experimentDescription: Binding to KRAS by surface plasmon resonance (SPR), dissociation constant KD
statedConditions: 1:1 binding model
Experimental: Surface plasmon resonance was used to analyze the binding affinity of compounds for KRAS, NRAS, and HRAS. […] The resulting sensorgram was subjected to curve fitting based on a 1:1 binding model on Biacore Insight Evaluation Software or T200 Evaluation Software, and thereby the dissociation constant KD of each compound with respect to KRAS, NRAS, and HRAS was determined. […]
Listed below: Kd values for each entry.
measuredParameter: Kd (nM)

molecule	experimentalSystem	measuredParameter	measured
CCO[C@@H]1C[C@H]2C(=O)NC3(CC(C)(C)C3)C(=O)N(C)[C@@H](C3CCCC3)C(=O)N(C)[C@H](C(=O)N(C)C)CC(=O)N(C)[C@@H]([C@@H](C)OC)C(=O)N[C@@H]([C@@H](C)CC)C(=O)N(C)CC(=O)N(C)[C@H]3C/C=C\CCN(C3=O)[C@@H](Cc3ccc(C(F)(F)F)cc3)C(=O)N(C)CC(=O)N[C@@H](CCc3ccc(C(F)(F)F)c(OC)c3)C(=O)N2C1 [PP3194]	GDP-bound KRAS wild-type protein (Homo sapiens, UniProt P01116)	Kd	0.041
CCC[C@H]1C(=O)N[C@@H]([C@@H](C)CC)C(=O)N(C)CC(=O)N(C)[C@H]2C/C=C\CCN(C2=O)[C@@H](Cc2ccc(C(F)(F)F)cc2)C(=O)N(C)CC(=O)N[C@@H](CCc2ccc(C(F)(F)F)c(OC)c2)C(=O)N2C[C@H](OCC)C[C@H]2C(=O)N(C)C2(CCC2)C(=O)N(C)[C@@H](C(CC)CC)C(=O)N(C)[C@H](C(=O)N(C)C)CC(=O)N1C [PP2382]	GDP-bound KRAS wild-type protein (Homo sapiens, UniProt P01116)	Kd	0.12
CCOC[C@H]1C(=O)N[C@@H]([C@@H](C)CC)C(=O)N2CCC[C@H]2C(=O)N(C)[C@H]2C/C=C\CCN(C2=O)[C@@H](Cc2ccc(C(F)(F)F)cc2)C(=O)N(C)CC(=O)N[C@@H](CCc2ccc(C(F)(F)F)c(OC)c2)C(=O)N2C[C@@H](C)C[C@H]2C(=O)N(C)C2(CCC2)C(=O)N(C)[C@@H](C2CCCC2)C(=O)N(C)[C@H](C(=O)N(C)C)CC(=O)N1C [PP2363]	GDP-bound KRAS wild-type protein (Homo sapiens, UniProt P01116)	Kd	0.062
